Please go through the items and note down their pIC50.
target.or.system: Tyrosine-protein phosphatase non-receptor type 1 (Homo sapiens, UniProt P18031)
Sequence (P18031 whole entry, the tested form may be a part): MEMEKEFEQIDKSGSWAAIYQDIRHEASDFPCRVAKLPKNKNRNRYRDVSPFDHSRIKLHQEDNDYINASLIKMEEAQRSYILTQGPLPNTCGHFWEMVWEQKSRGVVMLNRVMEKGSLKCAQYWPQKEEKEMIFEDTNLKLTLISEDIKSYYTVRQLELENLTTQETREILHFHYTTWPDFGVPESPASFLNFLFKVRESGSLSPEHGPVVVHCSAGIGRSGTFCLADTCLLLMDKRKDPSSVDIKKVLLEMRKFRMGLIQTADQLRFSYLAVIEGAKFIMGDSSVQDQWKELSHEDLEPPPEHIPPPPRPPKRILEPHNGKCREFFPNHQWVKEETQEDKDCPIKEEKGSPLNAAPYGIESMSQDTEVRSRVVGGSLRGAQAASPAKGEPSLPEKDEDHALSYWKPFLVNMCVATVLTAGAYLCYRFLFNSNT
test.protocol: Inhibition of recombinant human PTP1B (1 to 322 residues) expressed in Escherichia coli using pNPP as substrate incubated for 10 mins measured for 30 mins by spectrometric analysis
Answers are plain numbers, as −log10 of the molar value.

COC1=C2C(=O)c3c(O)c4c(c(CC=C(C)C)c3O[C@@]23[C@H]2C[C@@H]1C(=O)[C@]3(CC=C(C)C)OC2(C)C)O[C@](C)(CCC=C(C)C)C=C4 :: 4.89

Short answer on Tyrosine-protein phosphatase non-receptor type 1 (Homo sapiens, UniProt P18031) for `CC(C)=CCC[C@]1(C)C=Cc2c(O)c3c(c(CC=C(C)C)c2O1)O[C@]12C(=C[C@@H]4C[C@H]1C(C)(C)O[C@@]2(C/C=C(/C)C(=O)O)C4=O)C3=O` , pIC50: 6.33
